All figures here come from paper PMC11033320.

Below is a list of entries, each paired with its recorded inhibition at 10 µM value.
System: CCRF-CEM
assay.protocol: NCI anticancer screening, Leukemia CCRF-CEM
Assay type: cell-based
conditions: Homo sapiens, read-out: % Growth Inhibition (GI %)
Numbers only here, please. The scale is %.

{"compound": "COc1cc([C@@H]2C3CSCN3[C@]3(C(=O)Nc4ccccc43)[C@H]2C(=O)c2nc3ccccc3[nH]2)cc(OC)c1OC (some centres unmarked) [Compound 6i]", "readout.units": "%", "reported.result": 104}
{"compound": "O=C(c1nc2ccccc2[nH]1)[C@H]1[C@H](c2ccc(Br)cc2)C2CSCN2[C@]12C(=O)Nc1ccccc12 (some centres unmarked) [Compound 6l]", "readout.units": "%", "reported.result": 88.2}
{"compound": "O=C(c1nc2ccccc2[nH]1)[C@H]1[C@H](c2cccs2)C2CSCN2[C@]12C(=O)Nc1ccccc12 (some centres unmarked) [Compound 6e]", "readout.units": "%", "reported.result": 104}
{"compound": "O=C(c1nc2ccccc2[nH]1)[C@H]1[C@H](c2cccc(F)c2)C2CSCN2[C@]12C(=O)Nc1ccccc12 (some centres unmarked) [Compound 6m]", "readout.units": "%", "reported.result": 112}
{"compound": "O=C(c1nc2ccccc2[nH]1)[C@H]1[C@H](c2ccc(F)cc2)C2CSCN2[C@]12C(=O)Nc1ccccc12 (some centres unmarked) [Compound 6f]", "readout.units": "%", "reported.result": 98.2}

Enquiry: What value of inhibition at 10 µM has been reported for the following compound? O=C(c1nc2ccccc2[nH]1)[C@H]1[C@H](c2ccco2)C2CSCN2[C@]12C(=O)Nc1ccccc12 (some centres unmarked) [Compound 6n]
Return: 110

Enquiry: What value of inhibition at 10 µM has been reported for the following compound? O=C(c1nc2ccccc2[nH]1)[C@H]1[C@H](c2cccc(O)c2)C2CSCN2[C@]12C(=O)Nc1ccccc12 (some centres unmarked) [Compound 6h]
Return: 108

Enquiry: What value of inhibition at 10 µM has been reported for the following compound? Cc1ccc([C@@H]2C3CSCN3[C@]3(C(=O)Nc4ccccc43)[C@H]2C(=O)c2nc3ccccc3[nH]2)cc1 (mixture of isomers) [Compound 6d]
Return: 89.5

###

Test system: K-562
assay.protocol: NCI anticancer screening, Leukemia K-562
Format: cell-based
conditions: Homo sapiens, K562; K-562, 10 μM; read-out: % Growth Inhibition (GI %)
// Not fulfilled strictly below 90% in inhibition at 10 µM; Fulfilled otherwise

{"compound": "Cc1ccc([C@@H]2C3CSCN3[C@]3(C(=O)Nc4ccccc43)[C@H]2C(=O)c2nc3ccccc3[nH]2)cc1 (mixture of isomers) [Compound 6d]", "assigned.label": "Not fulfilled"}
{"compound": "O=C(c1nc2ccccc2[nH]1)[C@H]1[C@H](c2ccc(Cl)cc2)C2CSCN2[C@]12C(=O)Nc1ccccc12 (stereo partly drawn) [Compound 6b]", "assigned.label": "Not fulfilled"}
{"compound": "COc1cc([C@@H]2C3CSCN3[C@]3(C(=O)Nc4ccccc43)[C@H]2C(=O)c2nc3ccccc3[nH]2)cc(OC)c1OC (stereo partly drawn) [Compound 6i]", "assigned.label": "Fulfilled"}
{"compound": "O=C(c1nc2ccccc2[nH]1)[C@H]1[C@H](c2ccc(Br)cc2)C2CSCN2[C@]12C(=O)Nc1ccccc12 (stereo partly drawn) [Compound 6l]", "assigned.label": "Not fulfilled"}
{"compound": "O=C(c1nc2ccccc2[nH]1)[C@H]1[C@H](c2ccccc2O)C2CSCN2[C@]12C(=O)Nc1ccccc12 (stereo partly drawn) [Compound 6j]", "assigned.label": "Fulfilled"}

Enquiry: For this compound, is measured inhibition at 10 µM 90% or higher? O=C(c1nc2ccccc2[nH]1)[C@H]1[C@H](c2ccccc2)C2CSCN2[C@]12C(=O)Nc1ccccc12 (mixture of isomers) [Compound 6a]
Return: Fulfilled

###

Test system: UACC-62
assay.protocol: NCI anticancer screening, Melanoma UACC-62
Assay type: cell-based
conditions: Homo sapiens; UACC-62, 10 μM; read-out: % Growth Inhibition (GI %)
readout.type: inhibition at 10 µM (%)
Numbers only here, please. The scale is %.

Known inhibition at 10 µM results, listed for orientation:
{"compound": "COc1cc([C@@H]2C3CSCN3[C@]3(C(=O)Nc4ccccc43)[C@H]2C(=O)c2nc3ccccc3[nH]2)cc(OC)c1OC (stereo partly drawn)", "readout.units": "%", "inhibition at 10 µM": 87.4}
{"compound": "O=C(c1nc2ccccc2[nH]1)[C@H]1[C@H](c2cccc(O)c2)C2CSCN2[C@]12C(=O)Nc1ccccc12 (stereo partly drawn)", "readout.units": "%", "inhibition at 10 µM": 80}
{"compound": "O=C(c1nc2ccccc2[nH]1)[C@H]1[C@H](c2ccc(F)cc2)C2CSCN2[C@]12C(=O)Nc1ccccc12 (stereo partly drawn)", "readout.units": "%", "inhibition at 10 µM": 78.1}
{"compound": "Cc1ccc([C@@H]2C3CSCN3[C@]3(C(=O)Nc4ccccc43)[C@H]2C(=O)c2nc3ccccc3[nH]2)cc1 (mixture of isomers)", "readout.units": "%", "inhibition at 10 µM": 78}
{"compound": "O=C(c1nc2ccccc2[nH]1)[C@H]1[C@H](c2ccccc2O)C2CSCN2[C@]12C(=O)Nc1ccccc12 (stereo partly drawn)", "readout.units": "%", "inhibition at 10 µM": 77.3}

Then there is this compound:
Enquiry: What value of inhibition at 10 µM has been reported for the following compound? O=C(c1nc2ccccc2[nH]1)[C@H]1[C@H](c2ccc(Cl)cc2)C2CSCN2[C@]12C(=O)Nc1ccccc12 (stereo partly drawn)
Return: 73.9

###

System: CAKI-1
assay.protocol: NCI anticancer screening, Renal Cancer CAKI-1
Type: cell-based
conditions: Homo sapiens; CAKI-1, 10 μM; read-out: % Growth Inhibition (GI %)
readout.type: inhibition at 10 µM

Known inhibition at 10 µM results, listed for orientation:
{"compound": "CN(C)c1ccc([C@@H]2C3CSCN3[C@]3(C(=O)Nc4ccccc43)[C@H]2C(=O)c2nc3ccccc3[nH]2)cc1 (stereo partly shown)", "inhibition at 10 µM": "85.8%"}
{"compound": "Cc1ccc([C@@H]2C3CSCN3[C@]3(C(=O)Nc4ccccc43)[C@H]2C(=O)c2nc3ccccc3[nH]2)cc1 (mixture of isomers)", "inhibition at 10 µM": "54.5%"}
{"compound": "O=C(c1nc2ccccc2[nH]1)[C@H]1[C@H](c2cccs2)C2CSCN2[C@]12C(=O)Nc1ccccc12 (stereo partly shown)", "inhibition at 10 µM": "89.6%"}

Enquiry: What value of inhibition at 10 µM has been reported for the following compound? O=C(c1nc2ccccc2[nH]1)[C@H]1[C@H](c2ccc(F)cc2)C2CSCN2[C@]12C(=O)Nc1ccccc12 (stereo partly shown)
Return: 90%

Enquiry: What value of inhibition at 10 µM has been reported for the following compound? O=C(c1nc2ccccc2[nH]1)[C@H]1[C@H](c2ccco2)C2CSCN2[C@]12C(=O)Nc1ccccc12 (stereo partly shown)
Return: 88.5%

Enquiry: What value of inhibition at 10 µM has been reported for the following compound? O=C(c1nc2ccccc2[nH]1)[C@H]1[C@H](c2cccc(F)c2)C2CSCN2[C@]12C(=O)Nc1ccccc12 (stereo partly shown)
Return: 74.7%

Enquiry: What value of inhibition at 10 µM has been reported for the following compound? O=C(c1nc2ccccc2[nH]1)[C@H]1[C@H](c2ccc(Cl)cc2Cl)C2CSCN2[C@]12C(=O)Nc1ccccc12 (stereo partly shown)
Return: 36.9%

###

Tested on: COLO 205
assay.protocol: NCI anticancer screening, Colon Cancer COLO 205
Format: cell-based
conditions: Homo sapiens; COLO 205, 10 μM; read-out: % Growth Inhibition (GI %)
Below is a list of entries, each paired with its recorded inhibition at 10 µM value.
Numbers only here, please. The scale is %.

Known inhibition at 10 µM results, listed for orientation:
{"compound": "COc1cc([C@@H]2C3CSCN3[C@]3(C(=O)Nc4ccccc43)[C@H]2C(=O)c2nc3ccccc3[nH]2)cc(OC)c1OC (some centres unmarked)", "inhibition at 10 µM / %": 114}
{"compound": "O=C(c1nc2ccccc2[nH]1)[C@H]1[C@H](c2ccc(F)cc2)C2CSCN2[C@]12C(=O)Nc1ccccc12 (some centres unmarked)", "inhibition at 10 µM / %": 109}
{"compound": "O=C(c1nc2ccccc2[nH]1)[C@H]1[C@H](c2cccs2)C2CSCN2[C@]12C(=O)Nc1ccccc12 (some centres unmarked)", "inhibition at 10 µM / %": 112}
{"compound": "O=C(c1nc2ccccc2[nH]1)[C@H]1[C@H](c2ccccc2)C2CSCN2[C@]12C(=O)Nc1ccccc12 (mixture of isomers)", "inhibition at 10 µM / %": 99.9}

Enquiry: What value of inhibition at 10 µM has been reported for the following compound? Cc1ccc([C@@H]2C3CSCN3[C@]3(C(=O)Nc4ccccc43)[C@H]2C(=O)c2nc3ccccc3[nH]2)cc1 (mixture of isomers)
Return: 81.9
